- Test system: β-amyloid production by 7W WT APP751 CHO cells
- test-protocol: Screening of dihydropyridine compounds of Table 2, Aβ1-40 and Aβ1-42 (Example 5)
- Format: cell-based, Chinese hamster
- test-conditions: 3 and 10 μM, 24 hours (FIG. 24)
measured-parameter: concentration of Aβ1-40 compared to control

1) CC1=C(C(=O)OC(C)(C)C)C(c2cccc(F)c2F)C(C(=O)OC(C)(C)C)=C(C)N1 [Example 3-23]	decreased
2) CC1=C(C(=O)OC(C)(C)C)C(c2ccc(Br)cc2F)C(C(=O)OC(C)(C)C)=C(C)N1 [Example 3-34]	decreased
3) COCCOC(=O)C1=C(C)NC(C)=C(C(=O)OCCOC)C1c1ccc(Br)cc1 [Example 3-38]	decreased
4) CC1=C(C(=O)OC(C)(C)C)C(c2cc(Br)ccc2F)C(C(=O)OC(C)(C)C)=C(C)N1 [Example 3-42]	decreased
5) CCOC(=O)C1=C(C)NC(C)=C(C(=O)OCC)C1c1cc(Br)ccc1F [Example 3-41]	decreased
6) COCCOC(=O)C1=C(C)NC(C)=C(C(=O)OCCOC)C1c1cccc(Br)c1 [Example 3-37]	decreased
7) CCOC(=O)C1=C(C)NC(C)=C(C(=O)OCC)C1c1cccc(F)c1F [Example 3-22]	decreased
8) CCOC(=O)C1=C(C)NC(C)=C(C(=O)OCC)C1c1ccc(Br)cc1F [Example 3-33]	decreased

====

measured-parameter: melting point

1. COC(=O)C1=C(C)NC(C)=C(C(=O)OC)C1c1ccccc1Cl	188 to 189 °C
2. C=CCOC(=O)C1=C(C)NC(C)=C(C(=O)OCC=C)C1c1ccccc1Cl	98 to 99 °C
3. CCOC(=O)C1=C(C)NC(C)=C(C(=O)OCC)C1c1cccc(Br)c1	125 to 126 °C
4. CC1=C(C(=O)OC(C)(C)C)C(c2ccc(C)cc2C)C(C(=O)OC(C)(C)C)=C(C)N1	197 to 198 °C
5. CCOC(=O)C1=C(C)NC(C)=C(C(=O)OCC)C1c1ccc(F)cc1	150 to 151 °C

====

measured-parameter: melting point

1) CC1=C(C(=O)OC(C)(C)C)C(c2ccccc2[N+](=O)[O-])C(C(=O)OC(C)(C)C)=C(C)N1	159 to 161 °C
2) CC1=C(C(=O)OC(C)(C)C)C(c2ccc(Br)cc2F)C(C(=O)OC(C)(C)C)=C(C)N1	187 to 188 °C
3) CC1=C(C(=O)OC(C)(C)C)C(c2ccccc2Br)C(C(=O)OC(C)(C)C)=C(C)N1	162 to 164 °C
4) CCOC(=O)C1=C(C)NC(C)=C(C(=O)OC)C1c1ccccc1Cl (stereo not drawn)	125 to 127 °C
5) CCOC(=O)C1=C(C)NC(C)=C(C(=O)OCC)C1c1cccc(F)c1F	161 to 162 °C
6) COCC1=C(C(=O)OC)C(c2ccc(Br)cc2)C(C(=O)OC)=C(COC)N1	162 to 163 °C
7) CC1=C(C(=O)OC(C)(C)C)C(c2ccccc2I)C(C(=O)OC(C)(C)C)=C(C)N1	184 to 185 °C
8) CCOC(=O)C1=C(C)NC(C)=C(C(=O)OCC)C1c1cc(Cl)cc(Cl)c1	102 to 104 °C
9) CCOC(=O)C1=C(C)NC(C)=C(C(=O)OCC)C1c1ccccc1Cl	120 to 121 °C
10) CCOC(=O)C1=C(C)NC(C)=C(C(=O)OCC)C1c1ccccc1[N+](=O)[O-]	120 to 121 °C
11) COCCOC(=O)C1=C(C)NC(C)=C(C(=O)OCCOC)C1c1ccccc1Cl	120 to 121 °C
12) CC1=C(C(=O)OC(C)(C)C)C(c2cccc(Br)c2)C(C(=O)OC(C)(C)C)=C(C)N1	195 to 196 °C
13) C=CCOC(=O)C1=C(C)NC(C)=C(C(=O)OCC=C)C1c1ccc(Br)cc1	130 to 131 °C
14) CCOC(=O)C1=C(C)NC(C)=C(C(=O)OCC)C1c1ccc(Cl)cc1	151 to 152 °C
15) CCOC(=O)C1=C(C)N(Cc2ccccc2)C(C)=C(C(=O)OCC)C1c1ccc(Br)cc1	168 to 169 °C
16) COC(=O)C1=C(C)NC(C)=C(C(C)=O)C1c1ccccc1Br (stereo not drawn)	146 to 148 °C
17) COCC1=C(C(=O)OC)C(c2ccccc2Cl)C(C(=O)OC)=C(COC)N1	137 to 138 °C
18) CC1=C(C(=O)OC(C)(C)C)C(c2cccc(Cl)c2Cl)C(C(=O)OC(C)(C)C)=C(C)N1	144 to 145 °C
19) CC1=C(C(=O)OC(C)(C)C)C(c2cccc(Cl)c2)C(C(=O)OC(C)(C)C)=C(C)N1	189.5 to 190.5 °C
20) CC1=C(C(=O)OC(C)(C)C)C(c2ccc(Br)cc2)C(C(=O)OC(C)(C)C)=C(C)N1	206 to 207 °C
21) CCOC(=O)C1=C(C)NC(C)=C(C(=O)OCC)C1c1cccc(Cl)c1Cl	125 to 126 °C
22) CC1=C(C(=O)OC(C)(C)C)C(c2cc(Br)ccc2F)C(C(=O)OC(C)(C)C)=C(C)N1	173 to 174 °C
23) CCOC(=O)C1=C(C)NC(C)=C(C(=O)OCC)C1c1ccccc1Br	144 to 145 °C
24) CC1=C(C(=O)OC(C)(C)C)C(c2ccccc2F)C(C(=O)OC(C)(C)C)=C(C)N1	201 to 202 °C

====

The reader will find reported melting point values listed item by item below.
measured-parameter: melting point

1. CC1=C(C(=O)OC(C)(C)C)C(c2ccccc2Cl)C(C(=O)OC(C)(C)C)=C(C)N1 [Example 9]	194 to 196 °C
2. COCCOC(=O)C1=C(C)NC(C)=C(C(=O)OCCOC)C1c1ccc(Br)cc1 [Example 46]	116 to 117 °C
3. CCOC(=O)C1=C(C)NC(C)=C(C(=O)OCC)C1c1cc(Cl)ccc1Cl [Example 34]	166.5 to 167.5 °C
4. CCOC(=O)C1=C(C)NC(C)=C(C(=O)OCC)C1c1ccc(Br)cc1F [Example 43]	154 to 155 °C
5. CC(=O)C1=C(C)NC(C)=C(C(C)=O)C1c1ccccc1Cl [Example 7]	196 to 197 °C
6. CCOC(=O)C1=C(C)NC(C)=C(C(=O)OCC)C1c1ccccc1I [Example 18]	173 to 174.5 °C
7. CCOC(=O)C1=C(C)NC(C)=C(C(=O)OCC)C1c1ccccc1F [Example 12]	151 to 152.5 °C
8. CC1=C(C(=O)OC(C)(C)C)C(c2cccc(F)c2)C(C(=O)OC(C)(C)C)=C(C)N1 [Example 50]	178 to 179 °C
9. CCOC(=O)C1=C(C)NC(C)=C(C(=O)OCC)C1c1c(Cl)cccc1Cl [Example 36]	134 to 135 °C

====

Parameter melting point: see the listing below.
measured-parameter: melting point

1. COC(=O)C1=C(C)NC(C)=C(C(=O)OC)C1c1ccccc1Br [Example 19]	164 to 165 °C
2. CCOC(=O)C1=C(C)NC(C)=C(C(=O)OCC)C1c1cc(Br)ccc1F [Example 47]	118 to 119 °C
3. CC1=C(C(=O)OC(C)(C)C)C(c2ccc(F)c(Br)c2)C(C(=O)OC(C)(C)C)=C(C)N1 [Example 42]	171 to 172 °C
4. CC1=C(C(=O)OC(C)(C)C)C(c2ccc(F)cc2)C(C(=O)OC(C)(C)C)=C(C)N1 [Example 52]	149 to 150 °C
5. CC1=C(C(=O)OC(C)(C)C)C(c2cc(Cl)ccc2Cl)C(C(=O)OC(C)(C)C)=C(C)N1 [Example 35]	181 to 183 °C
6. COC(=O)C1=C(C)NC(C)=C(C(C)=O)C1c1ccccc1Cl (centres unmarked) [Example 57]	183 to 184 °C
7. CCOC(=O)C1=C(C)NC(C)=C(C(=O)OC)C1c1ccccc1Br (centres unmarked) [Example 58]	134.5 to 135.5 °C
8. CC1=C(C(=O)OC(C)(C)C)C(c2ccc(Cl)cc2)C(C(=O)OC(C)(C)C)=C(C)N1 [Example 23]	191.5 to 192.5 °C

This collection of values is drawn from patent US20060188938A1.
